Test system: Escherichia coli TOP10;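 further: peptides expressed intracellularly from a pBAD plasmid library in pooled LB shake-flask culture, induced with 0.3% L-arabinose, DNA abundance read by NGS, three biological replicates, DESeq2 with apeglm shrinkage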
Assay: shrunken log2 fold change of peptide-encoding DNA abundance (4.5 h post-induction vs induction); higher = less antimicrobial activity (less host growth inhibition)
Conditions: time post-induction: 4.5 h; library: site-saturation at positions 5, 18, 19, 20
Rule: shrunken log2 fold change of -0.07 or more gives MET; anything lower gives NOT MET.

The examples below pair each entry with its known result.
RRIRGRPPRLPRPRPRPESQPRP :: MET
RRIRNRPPRLPRPRPRPRHRPRP :: MET
RRIRFRPPRLPRPRPRPLSNPRP :: NOT MET

Consider the additional sequence presented here.
Task item: Could you tell me if the measured shrunken log2 fold change of RRIRHRPPRLPRPRPRPFLCPRP reaches -0.07 or more?
Reply: NOT MET

Data provenance: the supplement of paper PMC9112550
